Each entry below carries its measured IC50, system: UniProt P05067.

| COMPOUND | IC50 |
| --- | --- |
| O=C(O)COc1ccc2c(c1)CC(CCc1ccccc1)O2 (stereo not drawn) | 49 µM |
| O=C(O)COc1cc2c(cc1CCCOc1ccccc1)OC(CCc1ccccc1)C2 (stereo not drawn) | 29 µM |
| O=C(O)COc1cc2c(cc1CCCOc1ccccc1Cl)OC(CCc1ccccc1)C2 (stereo not drawn) | 8 µM |

###

Reported pIC50 values for the following molecules.
TARGET OR TEST SYSTEM: BACE2 (Homo sapiens, UniProt P05067, A673V/D672E/K670N/M671F)
Construct: IC50, BACE2 cleavage of APP at the beta-secretase cleavage site; other: MBP-biotinylated APP fusion protein with NFEV s; activity against BACE2 cleavage of APP at the beta-secretase position; other: result in words; biotin label
Sequence (P05067 whole entry K670N/M671F/D672E/A673V, the tested form may be a part): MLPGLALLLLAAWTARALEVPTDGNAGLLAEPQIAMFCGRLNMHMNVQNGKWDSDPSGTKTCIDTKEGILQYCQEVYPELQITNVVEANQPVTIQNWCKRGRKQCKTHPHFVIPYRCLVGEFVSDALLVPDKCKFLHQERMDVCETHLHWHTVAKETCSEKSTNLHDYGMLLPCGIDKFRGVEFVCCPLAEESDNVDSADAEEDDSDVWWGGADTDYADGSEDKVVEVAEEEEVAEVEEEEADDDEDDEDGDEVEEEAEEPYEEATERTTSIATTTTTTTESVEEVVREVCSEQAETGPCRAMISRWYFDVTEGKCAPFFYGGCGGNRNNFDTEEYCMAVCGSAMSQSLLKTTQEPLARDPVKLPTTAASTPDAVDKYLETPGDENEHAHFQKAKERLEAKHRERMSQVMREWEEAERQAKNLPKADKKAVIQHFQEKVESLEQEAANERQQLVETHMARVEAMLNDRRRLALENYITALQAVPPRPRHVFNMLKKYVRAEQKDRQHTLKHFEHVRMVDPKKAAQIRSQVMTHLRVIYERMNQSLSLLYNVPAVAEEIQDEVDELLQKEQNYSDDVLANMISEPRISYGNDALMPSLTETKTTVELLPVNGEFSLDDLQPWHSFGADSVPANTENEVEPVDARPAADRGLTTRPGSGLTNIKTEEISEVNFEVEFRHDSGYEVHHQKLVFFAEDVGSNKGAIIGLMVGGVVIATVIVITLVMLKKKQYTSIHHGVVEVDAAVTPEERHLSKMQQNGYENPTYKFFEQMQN
PROTOCOL: BACE2 cleavage of APP at the beta-secretase cleavage site (ALPHA)
CONDITION DETAILS: MBP-biotinylated APP fusion protein with NFEV site, pH 4.5, 30 minutes
Description: The effect of Examples 1-4 on cleavage of APP at the beta-secretase cleavage site was assayed as follows: […]
pIC50: −log10 of the molar value.
QUANTITY: pIC50

| MOLECULE | RECORDED MEASUREMENT |
| --- | --- |
| O=C(O)COc1cc2c(cc1CCCOc1ccccc1Cl)OC(CCc1ccccc1)C2 (stereo not shown) | 5.40 |
| Oc1cc2c(cc1CCCOc1ccc(-c3nnn[nH]3)cc1Cl)OC(CCc1ccccc1)C2 (stereo not shown) | 4.70 |
| O=C(O)COc1cc2c(cc1CCCOc1ccccc1)OC(CCc1ccccc1)C2 (stereo not shown) | 5.05 |
